// provenance: patent US6617340B1

- TARGET ENTITY: DPP-IV activity in human plasma (Homo sapiens, UniProt P27487)
- Sequence (P27487 39-766 limits assumed): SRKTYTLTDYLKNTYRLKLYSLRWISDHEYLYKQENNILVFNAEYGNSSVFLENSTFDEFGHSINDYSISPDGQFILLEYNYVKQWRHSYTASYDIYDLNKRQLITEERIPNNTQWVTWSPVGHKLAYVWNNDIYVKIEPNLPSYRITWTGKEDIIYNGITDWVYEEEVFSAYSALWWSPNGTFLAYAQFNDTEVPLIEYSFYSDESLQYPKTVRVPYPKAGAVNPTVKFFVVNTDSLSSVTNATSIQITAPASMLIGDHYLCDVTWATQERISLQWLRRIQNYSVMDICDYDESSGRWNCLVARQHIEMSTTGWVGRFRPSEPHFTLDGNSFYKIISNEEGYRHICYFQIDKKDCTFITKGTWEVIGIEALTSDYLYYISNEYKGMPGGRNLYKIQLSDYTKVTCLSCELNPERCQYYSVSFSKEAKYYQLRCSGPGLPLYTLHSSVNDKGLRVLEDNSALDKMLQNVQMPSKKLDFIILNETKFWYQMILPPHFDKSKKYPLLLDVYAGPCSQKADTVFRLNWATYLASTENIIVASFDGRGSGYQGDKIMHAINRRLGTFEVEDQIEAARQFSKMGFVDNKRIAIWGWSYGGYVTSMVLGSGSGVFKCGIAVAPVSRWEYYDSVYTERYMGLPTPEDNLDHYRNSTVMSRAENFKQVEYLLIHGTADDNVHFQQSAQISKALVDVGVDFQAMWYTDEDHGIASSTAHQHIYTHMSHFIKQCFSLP
- ASSAY EXPLANATION: human plasma DPP-IV assay
- CONDITION DETAILS: substrate H-Glycine-Proline-AMC
RECORDED METRIC: IC50 (µM)
Use µM as the unit, but write only the number.

Please report the recorded IC50 for O=C(CNCCNc1ncccn1)N1CCCC1 .
45.8

# iterate: N#Cc1ccc(NCCNCC(=O)N2CCCC2)nc1
9.2

# iterate: O=C(CNCCNc1ccc(Cl)cn1)N1CCCC1
15.9

# iterate: O=C(CNC1(CO)CCCC1)N1CCCC1
15.2

# iterate: O=C(CNCCNc1ccccn1)N1CCCC1
9.4
